Here the recorded IC50 is given for each entry.
- System: HCT-8
- assay notes: Cytotoxicity against human HCT8 cells
- Type: functional, cell-based
The figure you give is taken to be in µg/mL; do not add the unit.

Solved entries:
CCCCCCCCCCCC[C@H](O)[C@H](O)CC[C@H](O)[C@@H]1CC[C@@H](C[C@H](O)CCCCC[C@@H](O)CC2=C[C@@](C)(O)OC2=O)O1 [GARDNERININ] | 6.6
CCCCCCCCCCCC[C@H](O)[C@H]1CC[C@H]([C@H](O)CC(O)CCCCCCCCCC(=O)CCC2=C[C@H](C)OC2=O)O1 (stereo not given in full) [TONKININ A] | 0.59

Then there is this compound:
Tell me its IC50 given CCCCCCCCCCCC[C@@H](O)[C@H]1CC[C@H]([C@H](O)CC(O)CCCCCCCCCC(=O)CCC2=C[C@H](C)OC2=O)O1 (stereo not given in full) [TONKININ B] as the entry. 2.4

====

- assay notes: Toxicity in brine shrimp
- Format: organism-based
- condition info: artemia, in vivo
Friendly reminder: LC50 below 0.5 µg/mL is 1 (yes), at or above is 0 (no).

CCCCCCCCCC[C@@H]1O[C@H]([C@@H]2CC[C@H]([C@H](O)CCCCCCCCCC[C@@H](O)CC3=C[C@H](C)OC3=O)O2)CC[C@H]1O | 1 (yes)
CCCCCCCCCCCC[C@@H](O)[C@H]1CC[C@H]([C@H](O)CCCC[C@H](O)CCCCCCC[C@@H](O)CC2=C[C@H](C)OC2=O)O1 | 1 (yes)
CC[C@H](O)[C@H](O)CCCCCC[C@H](O)[C@H]1CC[C@H]([C@H]2CC[C@H]([C@H](O)CCCCCCCCCCCCC3=C[C@H](C)OC3=O)O2)O1 | 1 (yes)
CCCCC[C@H](O)[C@H](O)CCC[C@H](O)[C@H]1CC[C@H]([C@H]2CC[C@H]([C@H](O)CCCCCCCCCCCCC3=C[C@H](C)OC3=O)O2)O1 (stereo in doubt; 91) | 1 (yes)

Does the reported LC50 of the following compound sit strictly below 0.5 µg/mL? CCCCCCCCCCCC[C@@H](O)[C@H](O)CC[C@H](O)[C@@H]1CC[C@@H](C[C@H](O)CCCCC[C@@H](O)CC2=C[C@H](C)OC2=O)O1 0 (no)

Does the reported LC50 of the following compound sit strictly below 0.5 µg/mL? CCCCCCCCCCCC/C=C\CC[C@@H](O)[C@H](O)CCCCCCC(=O)CCCCCCCC1=C[C@H](C)OC1=O 0 (no)

Does the reported LC50 of the following compound sit strictly below 0.5 µg/mL? CCCCCCCCCC[C@@H](O)[C@H]1CC[C@H]([C@H]2CC[C@H]([C@H](O)CCCC[C@H](O)CCCCC[C@@H](O)CC3=C[C@H](C)OC3=O)O2)O1 1 (yes)

====

- assay notes: Toxicity in brine shrimp
- Type: organism-based
- condition info: artemia, in vivo
Here the recorded LC50 is given for each entry.
The figure you give is taken to be in µg/mL; do not add the unit.

CCCCCCCCCC[C@H](O)[C@@H](O)CCCC[C@H]1CC[C@H]([C@H]2CC[C@H]([C@H](O)CCCCC[C@@H](O)CC3=C[C@H](C)OC3=O)O2)O1 (stereo in doubt; 21) | 0.27
CCCCCCCCCCCCCC[C@@H](O)[C@H]1CC[C@H]([C@H](O)CCCC[C@H](O)CCCCC[C@@H]2CC(CC(C)=O)C(=O)O2)O1 (mixture of isomers) | 0.04
CCCCCCCCCC[C@@H](O)[C@H]1CC[C@H]([C@H](O)CCCC[C@H](O)CCCCCCC[C@@H](O)CC2=C[C@H](C)OC2=O)O1 | 0.11
CCCCCCCCCCCC[C@@H](O)[C@H]1CCC(C2CCC(CC(O)CCCCC[C@@H](O)CC3=C[C@H](C)OC3=O)O2)O1 (stereo not given in full) | 3.5

Then there is this compound:
Tell me its LC50 given CCCCCCCCCC[C@@H](O)[C@H]1CC[C@H]([C@H]2CC[C@H]([C@H](O)CCCCCC(=O)CCCC[C@@H]3CC(CC(C)=O)C(=O)O3)O2)O1 (mixture of isomers) as the entry. 0.67
